# Test target: T1, human LAP-TGFB1 Fc fusion (human)
# T1 construct: also called human LAP-TGFβ1-Fc; human LAP-TGFβ-Fc isoform 1
# T1 sequence (chain, as listed by the source limits assumed): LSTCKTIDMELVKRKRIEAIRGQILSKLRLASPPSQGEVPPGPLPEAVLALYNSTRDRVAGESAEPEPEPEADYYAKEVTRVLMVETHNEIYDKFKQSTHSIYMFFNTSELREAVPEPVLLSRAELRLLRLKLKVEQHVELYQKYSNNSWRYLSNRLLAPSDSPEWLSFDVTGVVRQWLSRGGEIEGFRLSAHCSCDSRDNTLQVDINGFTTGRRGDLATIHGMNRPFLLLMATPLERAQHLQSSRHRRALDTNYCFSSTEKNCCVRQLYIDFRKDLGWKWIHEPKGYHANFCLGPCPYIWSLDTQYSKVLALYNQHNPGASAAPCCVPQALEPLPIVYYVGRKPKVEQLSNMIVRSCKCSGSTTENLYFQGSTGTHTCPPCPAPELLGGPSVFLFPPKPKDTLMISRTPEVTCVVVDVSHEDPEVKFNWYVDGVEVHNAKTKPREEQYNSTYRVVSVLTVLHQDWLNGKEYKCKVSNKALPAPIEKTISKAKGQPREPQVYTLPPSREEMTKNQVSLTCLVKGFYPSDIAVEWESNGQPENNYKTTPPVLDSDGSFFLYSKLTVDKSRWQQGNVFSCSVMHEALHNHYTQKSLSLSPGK
# Method notes: SPR pH 7.4, antigen captured on Fab 54BLH
# Text: A Series S C1 sensor chip (Cytiva, catalog BR100535) was immobilized with low densities of high affinity Fab 54BLH on a Biacore T200 instrument with 1×HBS-EP+(Teknova, catalog H8022). This surface served as a monovalent capture surface for a low-density layer of heterodimer human LAP-TGFβ1 complex leaving the second binding site exposed for monovalent kinetic binding analysis with both mAbs and Fabs. […]
Would you mind telling me the reported Kd of each entry?
Numbers only, in nM.

Record Kd for all entries; do not skip any.
1. 07BLM (antibody, human IgG1, kappa, L234A L235A, V domains shown, IgG1 L234A L235A D265S/kappa; also called 70BLH; 43BMD) VH: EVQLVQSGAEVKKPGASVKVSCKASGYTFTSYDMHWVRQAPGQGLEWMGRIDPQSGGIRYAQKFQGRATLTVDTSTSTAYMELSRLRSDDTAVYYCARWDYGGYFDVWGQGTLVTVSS VL: DIQMTQSPSSLSASVGDRVTITCRASQDIYSYLNWYQQKPGKAVKLLIYYTSNLETGVPSRFSGSGSGTDYTLTISSLQPEDFATYFCQQGDTLPWTFGQGTKLEIKR
2. 11BLM (antibody, human IgG1, kappa, L234A L235A, V domains shown, IgG1 L234A L235A D265S/kappa; also called 74BLH; 47BMD) VH: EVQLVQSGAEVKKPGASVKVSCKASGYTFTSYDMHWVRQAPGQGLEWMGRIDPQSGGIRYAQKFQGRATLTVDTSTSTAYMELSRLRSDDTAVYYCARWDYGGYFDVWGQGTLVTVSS VL: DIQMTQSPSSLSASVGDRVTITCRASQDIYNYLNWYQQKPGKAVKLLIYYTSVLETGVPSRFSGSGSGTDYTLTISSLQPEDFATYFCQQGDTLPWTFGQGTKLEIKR
3. 60BLH (Fab, V domains shown, also called 12BLM Fab) VH: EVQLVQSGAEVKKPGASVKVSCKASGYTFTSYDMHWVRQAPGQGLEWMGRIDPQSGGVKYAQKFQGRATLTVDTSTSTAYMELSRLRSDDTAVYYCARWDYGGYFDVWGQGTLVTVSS VL: DIQMTQSPSSLSASVGDRVTITCRASQDIYNYLNWYQQKPGKAVKLLIYYTSVLETGVPSRFSGSGSGTDYTLTISSLQPEDFATYFCQQGDELPWTFGQGTKLEIK
4. 59BLH (Fab, V domains shown, also called 11BLM Fab) VH: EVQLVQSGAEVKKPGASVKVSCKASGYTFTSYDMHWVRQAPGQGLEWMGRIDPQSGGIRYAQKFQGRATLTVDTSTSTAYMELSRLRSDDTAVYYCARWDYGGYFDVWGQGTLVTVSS VL: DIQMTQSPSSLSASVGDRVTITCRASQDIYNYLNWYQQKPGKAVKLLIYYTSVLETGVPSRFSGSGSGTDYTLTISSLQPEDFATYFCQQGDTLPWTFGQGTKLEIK

Result:
1. 0.047
2. 0.026
3. 0.036
4. 0.044
